experimental_target: Dual specificity calcium/calmodulin-dependent 3',5'-cyclic nucleotide phosphodiesterase 1A (Homo sapiens)
Sequence (P54750 whole entry): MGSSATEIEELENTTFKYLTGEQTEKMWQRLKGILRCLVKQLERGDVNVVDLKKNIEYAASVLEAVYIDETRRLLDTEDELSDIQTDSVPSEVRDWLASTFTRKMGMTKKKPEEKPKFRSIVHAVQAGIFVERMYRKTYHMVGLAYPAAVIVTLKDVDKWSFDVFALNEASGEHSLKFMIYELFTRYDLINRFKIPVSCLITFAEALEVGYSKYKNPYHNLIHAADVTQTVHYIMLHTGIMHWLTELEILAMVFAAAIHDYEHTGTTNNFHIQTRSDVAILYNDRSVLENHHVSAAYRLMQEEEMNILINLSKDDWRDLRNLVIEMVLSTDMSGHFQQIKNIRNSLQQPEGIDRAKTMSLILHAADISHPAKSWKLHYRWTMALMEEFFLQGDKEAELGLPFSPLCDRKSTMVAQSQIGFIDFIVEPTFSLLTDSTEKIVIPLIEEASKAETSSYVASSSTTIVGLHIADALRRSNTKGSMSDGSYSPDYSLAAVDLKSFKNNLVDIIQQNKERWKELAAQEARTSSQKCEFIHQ
experimental_protocol: Inhibition of human recombinant PDE1A3 expressed in baculovirus-infected insect Sf9 cells by modified two-step method
attribute_measured: IC50 (µM)
Numbers only, in µM.

Q) Requested read-out: IC50. Entry: N#Cc1ccc(Oc2ccc3c(c2)COB3O)cc1
A) 6.1

Next compound, IC50 to be filled in.
Q) Requested read-out: IC50. Entry: COCc1nc2c([nH]1)c(=O)n(C)c(=O)n2CC(C)C
A) 10

###

experimental_target: Phosphodiesterase 4 (Homo sapiens, UniProt P27815+Q08499+Q07343+Q08493)
experimental_protocol: Inhibition of PDE4 in human U937 cells assessed as accumulation of [3H]adenosine by scintillation counting
Format: cell-based
applied_conditions: u-937
attribute_measured: IC50 (µM)
Numbers only, in µM.

# count of solved cases: 5
Q) Requested read-out: IC50. Entry: N#Cc1cccc(Oc2ccc3c(c2)COB3O)c1
A) 4.4

Q) Requested read-out: IC50. Entry: OB1OCc2cc(Oc3ccc(Cl)cc3)ccc21
A) 1.3

Q) Requested read-out: IC50. Entry: CCN(CC)S(=O)(=O)c1ccc(Oc2ccc3c(c2)COB3O)cc1
A) 3.4

Q) Requested read-out: IC50. Entry: N#Cc1ccccc1Oc1ccc2c(c1)COB2O
A) 3.7

Q) Requested read-out: IC50. Entry: O=C(O)c1ccc(Oc2ccc3c(c2)COB3O)cc1
A) 6.4

Look at each compound and report its IC50.
1. OB1OCc2cc(Oc3ccc(C(F)(F)F)cc3)ccc21
2. N#Cc1ccc(Oc2ccc3c(c2)COB3O)cc1

A)
1. 0.45
2. 0.49

###

Provide the recorded IC50 for the entries that follow.
Tested on: PBMC
experimental_protocol: Antiinflammatory activity in human PBMC assessed as inhibition of phytohemagglutininin-induced IL10 release after 48 hrs by FACS Array analysis
Type: functional, cell-based
One number for each entry, in µM.

Q) Requested read-out: IC50. Entry: COc1ccc(C2CNC(=O)C2)cc1OC1CCCC1 (centres undefined) [ROLIPRAM]
A) 0.88

Next molecule, IC50 to be filled in.
Q) Requested read-out: IC50. Entry: N#Cc1ccc(Oc2ccc3c(c2)COB3O)cc1 [CRISABOROLE]
A) 5.3

###

experimental_target: Phosphodiesterase 4 (Homo sapiens, UniProt P27815+Q08499+Q07343+Q08493)
experimental_protocol: Inhibition of PDE4 in human U937 cells assessed as accumulation of [3H]adenosine by scintillation counting
Type: cell-based
applied_conditions: u-937
attribute_measured: IC50 (µM)
Answers are plain numbers, in µM.

# count of solved cases: 3
Q) Requested read-out: IC50. Entry: OB1OCc2cc(Oc3ccccc3)ccc21
A) 6.8

Q) Requested read-out: IC50. Entry: Cc1ccc(Oc2ccc3c(c2)COB3O)cc1
A) 2

Q) Requested read-out: IC50. Entry: N#Cc1ccc(Oc2cccc3c2COB3O)cc1
A) 6

Look at each compound and report its IC50.
1. CCN(CC)C(=O)c1ccc(Oc2ccc3c(c2)COB3O)cc1
2. COc1ccc(Oc2ccc3c(c2)COB3O)cc1

A)
1.5
2.7

Look at each compound and report its IC50.
1. O=C(c1ccc(Oc2ccc3c(c2)COB3O)cc1)N1CCOCC1
2. OB1OCc2cc(Oc3ccc(F)cc3)ccc21

A)
1. 0.57
2. 7.7

###

experimental_target: Phosphodiesterase 4 (Homo sapiens, UniProt P27815+Q08499+Q07343+Q08493)
experimental_protocol: Inhibition of PDE4 in human U937 cells assessed as accumulation of [3H]adenosine by scintillation counting
Format: cell-based
applied_conditions: u-937
Provide the recorded IC50 for the entries that follow.

# count of solved cases: 2
Q) I'm curious: which IC50 was measured for CN1CCN(S(=O)(=O)c2ccc(Oc3ccc4c(c3)COB4O)cc2)CC1 tested on Phosphodiesterase 4 (Homo sapiens, UniProt P27815+Q08499+Q07343+Q08493)?
A) > 30 µM

Q) I'm curious: which IC50 was measured for N#Cc1ccc(Oc2ccc3c(c2)B(O)OC3)cc1 tested on Phosphodiesterase 4 (Homo sapiens, UniProt P27815+Q08499+Q07343+Q08493)?
A) > 30 µM

Next:
Q) I'm curious: which IC50 was measured for N#Cc1ccc(Oc2cccc3c2B(O)OC3)cc1 tested on Phosphodiesterase 4 (Homo sapiens, UniProt P27815+Q08499+Q07343+Q08493)?
A) > 30 µM
